# measured on: Nonstructural protein 3 (Zika virus)
# Sequence (A0A024AXB9 whole entry): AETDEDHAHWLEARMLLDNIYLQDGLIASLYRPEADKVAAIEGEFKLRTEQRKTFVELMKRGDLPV
# experimental details: Functional biochemical assay to identify treatments for viral infectious disease that targets Zika NS2B-NS3 protease. Utilizing a direct enzyme activity measurement method, reading the fluorescence intensity is used to characterize the relative potency of inhibitors as IC50.
# Set-up: species or system PRVABC59
reported property: IC50

[
  {
    "structure smiles": "Cc1c(C(=O)Nc2nccc3c2CNCC3)cc(C2CC2)n1C",
    "assay value": "> 99.5 µM"
  },
  {
    "structure smiles": "CCn1c(=O)c(N2CCC[C@H]2c2noc(C)n2)nc2ccccc21",
    "assay value": "> 99.5 µM"
  },
  {
    "structure smiles": "CNC(=O)c1ccnc(NC(=O)c2cc(C3CC3)n(C)c2C)c1",
    "assay value": "> 25 µM"
  },
  {
    "structure smiles": "Cn1nc2c(c1NC(=O)c1cc(Cl)cc(NC(=O)OCc3ccccc3)c1)CCNC2",
    "assay value": "> 99.5 µM"
  },
  {
    "structure smiles": "NCc1cccc(NC(=O)[C@@H](NC(=O)OCc2ccccc2)c2ccc(-c3cccc4c3CCO4)cc2)c1",
    "assay value": "14 µM"
  },
  {
    "structure smiles": "COCCO[C@]1(C)C(=O)Nc2cc(F)cc(C(=O)Nc3ccc4c(c3)CNC4)c21",
    "assay value": "3.16 µM"
  },
  {
    "structure smiles": "O=C(/C=C/c1ccccc1CN1CCCCC1)C(=O)N1CCOCC1",
    "assay value": "> 198 µM"
  },
  {
    "structure smiles": "NCc1cccc(CCc2cc(Cl)cc(NC(=O)OCc3ccccc3)c2)c1",
    "assay value": "9.6 µM"
  },
  {
    "structure smiles": "O=C(O)c1cc(Cl)ccc1NS(=O)(=O)c1ccc(Br)cc1",
    "assay value": "> 99.5 µM"
  },
  {
    "structure smiles": "NCc1cccc(NC(=O)c2nn(-c3ccccc3F)cc2Br)c1",
    "assay value": "> 99.5 µM"
  }
]

----------
# measured on: Nonstructural protein 3 (Zika virus)
# experimental details: Functional biochemical assay to identify treatments for viral infectious disease that targets Zika NS2B-NS3 protease. Utilizing a direct enzyme activity measurement method, reading the fluorescence intensity is used to characterize the relative potency of inhibitors as IC50.
# Parameters: species or system PRVABC59
As shown below, each of these molecules has a reported IC50 value.

[
  {
    "structure smiles": "CCCC[C@H](NC(C)=O)C(=O)N[C@H](C(=O)Nc1ccc(C(N)=O)cc1)c1ccc(OCc2ccccc2)cc1",
    "units": "µM",
    "operator symbol": ">",
    "IC50": 99.5
  },
  {
    "structure smiles": "Cc1ccc(-c2cc(CN)cc([C@@H]3C[C@H]3c3cc(Cl)cc(NC(=O)OCc4ccccc4)c3)c2)cn1",
    "units": "µM",
    "operator symbol": "=",
    "IC50": 3.56
  },
  {
    "structure smiles": "CNc1c(-c2cc(Cl)cc(C3CC3)c2)nc2cccc(C(=O)O)n12",
    "units": "µM",
    "operator symbol": ">",
    "IC50": 99.5
  },
  {
    "structure smiles": "O=C(O)c1cc(Cl)ccc1S(=O)(=O)N[C@H]1CCn2c(nnc2C(F)(F)F)C1",
    "units": "µM",
    "operator symbol": ">",
    "IC50": 99.5
  },
  {
    "structure smiles": "C[C@]1(S(C)(=O)=O)C(=O)Nc2cc(F)cc(C(=O)Nc3ccc4c(c3)CNC4)c21",
    "units": "µM",
    "operator symbol": "=",
    "IC50": 3.99
  },
  {
    "structure smiles": "NC[C@H]1C[C@@H](NC(=O)[C@@H](NC(=O)OCc2ccccc2)c2ccc(OCc3ccccc3)cc2)C1",
    "units": "µM",
    "operator symbol": "=",
    "IC50": 85.2
  },
  {
    "structure smiles": "NCc1cccc(NC(=O)[C@H](NC(=O)c2ccccc2Cl)c2ccc(OCc3ccccc3)cc2)c1",
    "units": "µM",
    "operator symbol": "=",
    "IC50": 33.1
  },
  {
    "structure smiles": "O=C(Nc1cc(Cl)cc(C(=O)N[C@@]23CCCCC[C@@H]2NCC3)c1)OCc1ccccc1",
    "units": "µM",
    "operator symbol": "=",
    "IC50": 76.1
  },
  {
    "structure smiles": "c1ccc(-c2[nH]c3ccccc3c2CN2CCC(c3cscn3)CC2)cc1",
    "units": "µM",
    "operator symbol": "=",
    "IC50": 34.4
  },
  {
    "structure smiles": "CC(C)(C)OC(=O)Cn1ccnc(N2CC[C@@H](CO)C2)c1=O",
    "units": "µM",
    "operator symbol": ">",
    "IC50": 99.5
  },
  {
    "structure smiles": "NCc1cccc(NC(=O)c2cc(C(F)(F)F)ccc2SC2CCCC2)c1",
    "units": "µM",
    "operator symbol": "=",
    "IC50": 84.3
  },
  {
    "structure smiles": "O=C(Nc1cc(Cl)cc(C(=O)Nc2ccc3c(c2)CNCC3)c1)OCc1ccccc1",
    "units": "µM",
    "operator symbol": "=",
    "IC50": 3.4
  },
  {
    "structure smiles": "CCc1cnc2c(NC(=O)c3cccc4c3CC(=O)N4)cnn2c1",
    "units": "µM",
    "operator symbol": ">",
    "IC50": 25
  },
  {
    "structure smiles": "Cc1c(C(=O)Nc2cc(-c3cccnc3)ccn2)cc(C2CCCC2)n1C",
    "units": "µM",
    "operator symbol": ">",
    "IC50": 25
  },
  {
    "structure smiles": "CCNC(=O)c1ccc2c(c1)nc(N1CC[C@H](CO)C1)c(=O)n2CC",
    "units": "µM",
    "operator symbol": ">",
    "IC50": 99.5
  },
  {
    "structure smiles": "O=C(c1cc(Cl)ccc1NS(=O)(=O)c1ccc(Oc2ccccc2Cl)cc1)N1CCC[C@@H]1CO",
    "units": "µM",
    "operator symbol": ">",
    "IC50": 99.5
  },
  {
    "structure smiles": "Cn1cc(-c2cccc([C@@H](NC(=O)OCc3ccccc3)C(=O)Nc3cccc(CN)c3)c2)ccc1=O",
    "units": "µM",
    "operator symbol": "=",
    "IC50": 73.9
  },
  {
    "structure smiles": "O=C(NCCO)c1cc(Cl)ccc1NS(=O)(=O)c1ccc(Oc2ccccc2Cl)cc1",
    "units": "µM",
    "operator symbol": ">",
    "IC50": 99.5
  },
  {
    "structure smiles": "O=C(Nc1ccc2c(c1)CNC2)c1cnnc2ccccc12",
    "units": "µM",
    "operator symbol": "=",
    "IC50": 19.6
  },
  {
    "structure smiles": "Cc1c(C(=O)Nc2cccc(-c3nc(C4CC4)no3)c2)cc(C2CC2)n1C",
    "units": "µM",
    "operator symbol": ">",
    "IC50": 25
  }
]
